B1: ZNF75A (parent)
chain: RTHTGEQPYTCSICRRNFSRRSSL

Variants of: B1
assay.method.text: protein stability index of a GFP-peptide fusion (GPS, HEK-293T) (PSI 1-6); higher = more stable;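 also: lentivirally expressed fusions sorted by FACS into six bins by GFP to DsRed ratio, PSI derived from sequencing read proportions per bin multiplied by bin number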
condition.notes: c terminus: a fixed tail appended
Lab note: anything with protein stability index at or over 3 counts as class 1; the rest go in class 0.

variant.identifier | classification
P8E | class 1
Y9M | class 0
E6M | class 0
S23D | class 0
H3F | class 1
I13Q | class 0
R20F | class 0
C14S | class 1
C11H | class 1
I13G | class 0
T10V | class 1
H3A | class 0
T4F | class 1
N17H | class 0
P8L | class 0
R15T | class 0
G5N | class 0
C14H | class 1
R1A | class 1
F18G | class 0
S12K | class 0
I13Y | class 0
T4V | class 1
E6N | class 0
T10K | class 0
C14F | class 1
T2Q | class 0
R15Y | class 0
S22C | class 0
F18K | class 0
Y9N | class 0
S19Y | class 1
C11M | class 1
R1P | class 1
R1N | class 1
R15N | class 0
R20L | class 0
T4E | class 1
R20I | class 0
I13L | class 0
P8K | class 1
S12F | class 0
G5K | class 0
S22T | class 1
C14D | class 1
R20H | class 0
N17I | class 0
S23E | class 0
T4I | class 1
L24W | class 0
I13T | class 0
N17M | class 0
R20S | class 0
N17W | class 0
S23M | class 0
Q7G | class 0
S12C | class 0
Y9K | class 0
T10C | class 0
S23H | class 0
R21W | class 0
R16Y | class 0
I13N | class 1
E6G | class 0
T10N | class 0
C11E | class 1
T2E | class 0
E6C | class 1
R15M | class 0
F18W | class 0
C14W | class 0
S22I | class 0
I13F | class 0
Q7V | class 0
H3V | class 0
C11V | class 1
Y9C | class 1
C14Y | class 1
S19V | class 0
H3M | class 0
S12P | class 1
F18Q | class 0
T4A | class 0
F18M | class 0
S19D | class 0
S19T | class 1
N17T | class 1
R16W | class 0
